target: T1, mesothelin on CHO-A9 cells (CHO-K1 stably transfected with the GPI-anchored C-terminal part of mesothelin) (Homo sapiens (Human), UniProt Q13421 287-598, GPI anchor); experiment: live cell ELISA, IgG1 on CHO-A9 cells
T1 construct: In the immunoblots the protein stood in a denatured cell extract; also called mesothelin-expressing CHO-A9 cells
T1 sequence (Q13421 other isoform, or with tags, fused parts or gaps limits assumed): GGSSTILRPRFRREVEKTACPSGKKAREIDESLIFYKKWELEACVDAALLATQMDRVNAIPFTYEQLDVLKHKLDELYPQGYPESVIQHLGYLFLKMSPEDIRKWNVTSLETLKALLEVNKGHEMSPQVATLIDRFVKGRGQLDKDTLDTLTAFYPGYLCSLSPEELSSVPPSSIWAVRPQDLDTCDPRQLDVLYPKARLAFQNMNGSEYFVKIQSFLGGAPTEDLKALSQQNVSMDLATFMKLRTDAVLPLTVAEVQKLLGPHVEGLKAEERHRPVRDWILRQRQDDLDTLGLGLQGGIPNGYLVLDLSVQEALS
pEC50: −log10 of the molar value.
// reported pEC50 per item

{"binder": "MF-T IgG (antibody, V domains shown) VH: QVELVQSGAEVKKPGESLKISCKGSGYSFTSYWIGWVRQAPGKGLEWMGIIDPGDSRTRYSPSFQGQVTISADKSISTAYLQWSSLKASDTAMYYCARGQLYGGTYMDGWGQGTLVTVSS VL: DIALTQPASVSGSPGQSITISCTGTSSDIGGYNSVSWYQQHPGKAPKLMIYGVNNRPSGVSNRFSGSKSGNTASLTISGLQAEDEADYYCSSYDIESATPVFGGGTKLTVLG", "pEC50": 8.82}
{"binder": "MF-J IgG (antibody, V domains shown) VH: QVELVQSGAEVKKPGESLKISCKGSGYSFTNYWIGWVRQMPGKGLEWMGVIMPSDSYTRYSPSFQGQVTISADKSISTAYLQWSSLKASDTAMYYCARYGHGMYGGALDVWGQGTLVTVSS VL: DIVLTQSPATLSLSPGERATLSCRASQSVRSSRLAWYQQKPGQAPRLLIYGASKRATGVPARFSGSGSGTDFTLTISSLEPEDFATYYCQQYYDFPPTFGQGTKVEIKR", "pEC50": 8.41}
{"binder": "MF-A IgG (antibody, V domains shown) VH: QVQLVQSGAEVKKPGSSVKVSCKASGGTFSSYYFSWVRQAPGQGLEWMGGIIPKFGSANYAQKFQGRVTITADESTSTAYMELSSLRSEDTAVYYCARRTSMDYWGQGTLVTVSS VL: DIALTQPASVSGSPGQSITISCTGTSSDVGGYNYVSWYQQHPGKAPKLMIYSVSKRPSGVSNRFSGSKSGNTASLTISGLQAEDEADYYCGAWAHMSLGKVFGGGTKLTVLG", "pEC50": 9.10}
